Listed here: items and their measured Activity.
# Organism: Rattus norvegicus
# Test name: Stimulation [3H]muscimol binding to GABA binding site of GABA-A receptor in Sprague-Dawley rat cerebellum at 800 nM by liquid scintillation spectrophotometry
# Format: tissue-based

- Test smiles: "CC(=O)[C@H]1CC[C@H]2[C@@H]3CC[C@H]4C[C@H](F)[C@@H]5C[C@]4(COS(=O)(=O)N5)[C@H]3CC[C@]12C"
  Activity: "96%"
- Test smiles: "CC(=O)[C@H]1CC[C@H]2[C@@H]3CC[C@H]4C[C@H](O)[C@@H]5C[C@]4(COS(=O)(=O)N5Cc4ccccc4)[C@H]3CC[C@]12C"
  Activity: "124%"
- Test smiles: "CC(=O)[C@H]1CC[C@H]2[C@@H]3CC[C@H]4C[C@H](O)[C@@H]5C[C@]4(COS(=O)(=O)N5)[C@H]3CC[C@]12C"
  Activity: "170%"

In the following, a different compound is considered.
Give Activity for CC(=O)[C@H]1CC[C@H]2[C@@H]3CC[C@H]4C[C@H](O)CC[C@]4(C)[C@H]3CC[C@]12C
165%

Reference source: ChEMBL document CHEMBL1152575
